Biological target: T1, human PAI-1 captured on immobilized human vitronectin (human, UniProt P04004 20-478)
T1 construct: non-covalent complex formed on the chip or plate; also called PAI-1/Vn complex; Vn captured hPAI-1
T1 sequence (chain, as listed by the source limits assumed, chain 1 of 2): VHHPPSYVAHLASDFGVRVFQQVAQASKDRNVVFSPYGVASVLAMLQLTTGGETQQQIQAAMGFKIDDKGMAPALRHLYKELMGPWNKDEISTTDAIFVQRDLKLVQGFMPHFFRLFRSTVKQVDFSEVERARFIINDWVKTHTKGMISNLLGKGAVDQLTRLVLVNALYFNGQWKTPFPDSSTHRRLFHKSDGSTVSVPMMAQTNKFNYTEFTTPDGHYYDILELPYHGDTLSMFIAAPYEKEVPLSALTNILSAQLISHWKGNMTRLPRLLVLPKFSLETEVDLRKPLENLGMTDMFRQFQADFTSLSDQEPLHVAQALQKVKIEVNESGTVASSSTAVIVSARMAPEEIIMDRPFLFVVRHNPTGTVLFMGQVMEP
T1 sequence (P04004 20-478 limits assumed, chain 2 of 2): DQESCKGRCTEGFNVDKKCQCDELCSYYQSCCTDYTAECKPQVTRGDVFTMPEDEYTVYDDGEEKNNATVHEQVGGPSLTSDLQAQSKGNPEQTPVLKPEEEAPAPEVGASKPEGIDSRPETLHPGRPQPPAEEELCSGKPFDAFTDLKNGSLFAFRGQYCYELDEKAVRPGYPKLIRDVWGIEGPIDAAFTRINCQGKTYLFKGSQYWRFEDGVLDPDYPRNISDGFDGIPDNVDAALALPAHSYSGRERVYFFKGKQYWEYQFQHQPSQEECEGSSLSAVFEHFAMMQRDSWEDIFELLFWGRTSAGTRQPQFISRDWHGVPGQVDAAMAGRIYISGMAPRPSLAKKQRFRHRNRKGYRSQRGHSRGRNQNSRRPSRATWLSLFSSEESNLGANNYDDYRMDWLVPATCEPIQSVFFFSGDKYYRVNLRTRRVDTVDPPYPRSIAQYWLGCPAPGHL
Test: Biacore, hPAI-1 on vitronectin chip, 1:1 model
pKd: −log10 of the molar value.
measured.attribute: pKd

binder | recorded.measurement
A44-hv4 (antibody, V domains shown, humanized A44, HEK293; constant regions as for A44-hv1; also called LC1a x HC2b; variant 4) VH: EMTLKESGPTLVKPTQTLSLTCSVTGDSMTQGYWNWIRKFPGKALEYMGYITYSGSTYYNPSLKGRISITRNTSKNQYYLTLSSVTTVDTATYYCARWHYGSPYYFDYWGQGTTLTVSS VL: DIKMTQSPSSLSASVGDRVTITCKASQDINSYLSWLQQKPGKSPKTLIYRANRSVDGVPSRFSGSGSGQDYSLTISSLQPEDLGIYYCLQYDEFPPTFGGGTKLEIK | 10.72
A44-hv9 (antibody, V domains shown, humanized A44, HEK293; constant regions as for A44-hv1; also called LC5b x HC5b; variant 9) VH: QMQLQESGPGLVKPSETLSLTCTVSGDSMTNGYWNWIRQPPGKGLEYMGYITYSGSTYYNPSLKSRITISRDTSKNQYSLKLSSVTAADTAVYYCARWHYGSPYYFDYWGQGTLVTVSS VL: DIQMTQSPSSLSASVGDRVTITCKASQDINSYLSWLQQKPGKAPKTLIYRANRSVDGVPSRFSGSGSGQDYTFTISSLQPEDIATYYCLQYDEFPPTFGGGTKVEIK | 10.77
A44-hv11 (antibody, V domains shown, humanized A44, HEK293; compared with a human IgG1 isotype control; constant regions as for A44-hv1; also called A44V11; A44v11) VH: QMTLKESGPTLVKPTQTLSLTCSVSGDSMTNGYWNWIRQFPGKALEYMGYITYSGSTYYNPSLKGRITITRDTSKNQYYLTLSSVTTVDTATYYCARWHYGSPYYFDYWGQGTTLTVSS VL: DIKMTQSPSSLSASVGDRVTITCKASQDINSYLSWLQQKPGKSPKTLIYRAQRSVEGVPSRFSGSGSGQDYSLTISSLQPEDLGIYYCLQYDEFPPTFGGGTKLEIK | 10.81
A44-hv12 (antibody, V domains shown, humanized A44, HEK293; constant regions as for A44-hv1; also called LC4 x HC3; variant 12) VH: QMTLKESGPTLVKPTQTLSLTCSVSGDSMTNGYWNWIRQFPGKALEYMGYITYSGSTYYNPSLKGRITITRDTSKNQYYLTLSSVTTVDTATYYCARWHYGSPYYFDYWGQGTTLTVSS VL: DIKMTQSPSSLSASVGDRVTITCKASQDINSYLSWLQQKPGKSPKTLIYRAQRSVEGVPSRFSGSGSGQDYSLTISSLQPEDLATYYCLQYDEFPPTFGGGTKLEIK | 10.79
A44-hv5 (antibody, V domains shown, humanized A44, HEK293; constant regions as for A44-hv1; also called LC2 x HC2b; variant 5) VH: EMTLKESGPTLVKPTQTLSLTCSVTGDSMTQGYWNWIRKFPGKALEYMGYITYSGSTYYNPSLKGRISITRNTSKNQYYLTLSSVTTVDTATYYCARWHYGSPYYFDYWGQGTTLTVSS VL: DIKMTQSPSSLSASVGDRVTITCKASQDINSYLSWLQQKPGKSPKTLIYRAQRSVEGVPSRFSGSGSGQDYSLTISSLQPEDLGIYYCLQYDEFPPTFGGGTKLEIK | 10.99
